tested target: Serine/threonine-protein kinase D1 (Homo sapiens)
assay details: inhibitors of human PKD1 kinase, biochemical, fluorescence polarization (AID 797)
assay context: PKD1 kinase fluorescence polarization assay; concentration not given here
Screen size: about 200,000 compounds; about 110 (0.055%) were called active. No stated cut-off is given here; in the data, active means inhibition above about 50%; inactive means the rest. This excerpt belongs to a sample that is enriched for actives.
API: response.call in t for active, f for inactive

Q: For CCNC(=O)CC1C(=O)N(c2ccc(F)cc2)C(=O)N1Cc1cccs1 (stereo unspecified) , what call appears in the results of this test?
Result: f

Q: Give the logged outcome of this assay for the following molecule: `CCCCn1nc(C(=O)OCC(=O)Nc2sccc2C(N)=O)c2ccccc2c1=O`
Result: f
